Target: T1, VKLSCKASGYIFTSHRGGPEE (SEQ. ID. No. 74)
T1 peptide: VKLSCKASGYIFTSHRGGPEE
Assay: competition EIA, 5 ug HBcAg peptide + 5 ug SEQ 74 peptide on coated HBcAg (competitor); OD of bound SEQ 74 peptide
Threshold rule: OD at 490 nm greater than or equal to 1 OD is T; below that, F.

- ALESPEHCSPHHTALRQAIL [HBcAg peptide ALESPEHCSPHHTALRQAIL (residues 41-60, Sequence ID 99)]: T
- ATVELLSFLPSDFFPSVRDL [HBcAg peptide ATVELLSFLPSDFFPSVRDL (residues 11-30, Sequence ID 96)]: T

For this binder, is measured OD at 490 nm 1 OD or higher? AYRPPNAPILSTLPETTVVR [HBcAg peptide AYRPPNAPILSTLPETTVVR (residues 131-150, Sequence ID 108)]
T

For this binder, is measured OD at 490 nm 1 OD or higher? CWGELMTLATWVGVNLEDPA [HBcAg peptide CWGELMTLATWVGVNLEDPA (residues 61-80, Sequence ID 101)]
T

For this binder, is measured OD at 490 nm 1 OD or higher? LWFHISCLTFGRETVIEYLV [HBcAg peptide LWFHISCLTFGRETVIEYLV (residues 101-120, Sequence ID 105)]
T

For this binder, is measured OD at 490 nm 1 OD or higher? WVGVNLEDPASRDLVVSYVN [HBcAg peptide WVGVNLEDPASRDLVVSYVN (residues 71-90, Sequence ID 102)]
T

For this binder, is measured OD at 490 nm 1 OD or higher? LDTASALYREALESPEHCSP [HBcAg peptide LDTASALYREALESPEHCSP (residues 31-50, Sequence ID 98)]
T

For this binder, is measured OD at 490 nm 1 OD or higher? SDFFPSVRDLLDTASALYRE [HBcAg peptide SDFFPSVRDLLDTASALYRE (residues 21-40, Sequence ID 97)]
T

For this binder, is measured OD at 490 nm 1 OD or higher? SRDLVVSYVNTNMGLKFRQL [HBcAg peptide SRDLVVSYVNTNMGLKFRQL (SEQ. ID. NO. 103, residues 81-100)]
F

For this binder, is measured OD at 490 nm 1 OD or higher? TNMGLKFRQLLWFHISCLTF [HBcAg peptide TNMGLKFRQLLWFHISCLTF (SEQ. ID. No. 104, residues 91-110)]
F
